tested on: TE-8 (Esophageal Squamous Cell Carcinoma); test: combination Emax (second highest fraction inhibited in the dose matrix, 72 h); higher = more inhibition; extreme values may be limits of the assay
Result Type: combination Emax
A bare number is all that is needed in reply.

INSERT INTO results (compound, tested_target, obs_value) VALUES
  ('C=CCn1c(=O)c2cnc(Nc3ccc(N4CCN(C)CC4)cc3)nc2n1-c1cccc(C(C)(C)O)n1 [AZD1775] + O=C(c1cc(Cc2n[nH]c(=O)c3ccccc23)ccc1F)N1CCN(C(=O)C2CC2)CC1 [Olaparib] (first compound max 1 µM, partner max 10 µM)', 'TE-8 (Esophageal Squamous Cell Carcinoma)', 0.865),
  ('Cc1cc2ncnn2cc1Nc1ncc2c(n1)n(C1CCOCC1)c(=O)n2C [AZD7648] + CN(C)CCCOc1ccc(-c2ccc3ncc4c(c3c2)n(C2CCOCC2)c(=O)n4C)cn1 [AZD0156] (first compound max 10 µM, 7x7, partner max 1 µM)', 'TE-8 (Esophageal Squamous Cell Carcinoma)', 0.325),
  ('Cc1c2c(nn1C)CSCc1cc(n(C)n1)CSc1cc(c3ccccc3c1)OCCCc1c(C(=O)O)n(C)c3c-2c(Cl)ccc13 [AZD5991] + C1CN(CCC1(C(=O)N[C@@H](CCO)C2=CC=C(C=C2)Cl)N)C3=NC=NC4=C3C=CN4 [Capivasertib] (first compound max 1 µM, 7x7, partner max 3 µM)', 'TE-8 (Esophageal Squamous Cell Carcinoma)', 0.523);

[ask] Consider the compound shown here: Cc1c2c(nn1C)CSCc1cc(n(C)n1)CSc1cc(c3ccccc3c1)OCCCc1c(C(=O)O)n(C)c3c-2c(Cl)ccc13 [AZD5991] + CS(=O)(=O)CCNCc1ccc(-c2ccc3ncnc(Nc4ccc(OCc5cccc(F)c5)c(Cl)c4)c3c2)o1 [Lapatinib] (first compound max 1 µM, 7x7, partner max 10 µM) What is its recorded combination Emax?
[reply] 0.409

###

system: TE-8 (Esophageal Squamous Cell Carcinoma); experiment: combination Emax (second highest fraction inhibited in the dose matrix, 72 h); higher = more inhibition; extreme values may be limits of the assay
Result Type: combination Emax
Lab note: jot the number down without any unit.

INSERT INTO assay_data (molecule, result_type, obs_value) VALUES
  ('O=C(c1cc(Cc2n[nH]c(=O)c3ccccc23)ccc1F)N1CCN(C(=O)C2CC2)CC1 [Olaparib] + Cc1c2c(nn1C)CSCc1cc(n(C)n1)CSc1cc(c3ccccc3c1)OCCCc1c(C(=O)O)n(C)c3c-2c(Cl)ccc13 [AZD5991] (first compound max 10 µM, 7x7, partner max 1 µM)', 'combination Emax', 0.184),
  ('CC1(C)CCC(CN2CCN(c3ccc(C(=O)NS(=O)(=O)c4ccc(NCC5CCOCC5)c([N+](=O)[O-])c4)c(Oc4cnc5[nH]ccc5c4)c3)CC2)=C(c2ccc(Cl)cc2)C1 [Venetoclax] + CN(C)CCCOc1ccc(-c2ccc3ncc4c(c3c2)n(C2CCOCC2)c(=O)n4C)cn1 [AZD0156] (first compound max 1 µM, 7x7, partner max 1 µM)', 'combination Emax', 0.519),
  ('CC1(C)CCC(CN2CCN(c3ccc(C(=O)NS(=O)(=O)c4ccc(NCC5CCOCC5)c([N+](=O)[O-])c4)c(Oc4cnc5[nH]ccc5c4)c3)CC2)=C(c2ccc(Cl)cc2)C1 [Venetoclax] + CCN(CCO)CCCOc1ccc2c(Nc3cc(CC(=O)Nc4cccc(F)c4)[nH]n3)ncnc2c1 [AZD2811] (first compound max 1 µM, 7x7, partner max 1 µM)', 'combination Emax', 0.396),
  ('NC1(C(=O)N[C@@H](CCO)c2ccc(Cl)cc2)CCN(c2ncnc3[nH]ccc23)CC1 [Capivasertib] + C[C@@H]1COCCN1C2=NC(=NC(=C2)C3(CC3)[S@](=N)(=O)C)C4=C5C=CNC5=NC=C4 [AZD6738] (first compound max 10 µM, 7x7, partner max 10 µM)', 'combination Emax', 0.706),
  ('COc1nnc2ccc(N3CCC(c4ccc(OCCN5CCN(C)C(=O)[C@H]5C)cc4)CC3)nn12 [AZD5153] + Cc1c2c(nn1C)CSCc1cc(n(C)n1)CSc1cc(c3ccccc3c1)OCCCc1c(C(=O)O)n(C)c3c-2c(Cl)ccc13 [AZD5991] (first compound max 1 µM, 7x7, partner max 1 µM)', 'combination Emax', 0.705);

For the next question, use this molecule.
[ask] What value of measured combination Emax is listed for C[C@@H]1COCCN1c1cc(C2([S@](C)(=N)=O)CC2)nc(-c2ccnc3[nH]ccc23)n1 [AZD6738] + O=C(c1cc(Cc2n[nH]c(=O)c3ccccc23)ccc1F)N1CCN(C(=O)C2CC2)CC1 [Olaparib] (first compound max 10 µM, 7x7, partner max 10 µM) ?
[reply] 0.757

###

tested on: LK-2 (Squamous Cell Lung Carcinoma); assay: combination Emax (second highest fraction inhibited in the dose matrix, 72 h); higher = more inhibition; extreme values may be limits of the assay
Result Type: combination Emax
Form: value (number only, do not type unit).

INSERT INTO measurements (compound, tested_target, result_type, obs_value) VALUES
  ('COc1cccc(OCCCN)c1-c1cc(Nc2cnc(C#N)cn2)n[nH]1 [Prexasertib] + Cc1cc2ncnn2cc1Nc1ncc2c(n1)n(C1CCOCC1)c(=O)n2C [AZD7648] (first compound max 1 µM, 7x7, partner max 10 µM)', 'LK-2 (Squamous Cell Lung Carcinoma)', 'combination Emax', 0.755),
  ('CN(C)CCCOc1ccc(-c2ccc3ncc4c(c3c2)n(C2CCOCC2)c(=O)n4C)cn1 [AZD0156] + C[C@@H]1COCCN1C2=NC(=NC(=C2)C3(CC3)[S@](=N)(=O)C)C4=C5C=CNC5=NC=C4 [AZD6738] (first compound max 1 µM, 7x7, partner max 10 µM)', 'LK-2 (Squamous Cell Lung Carcinoma)', 'combination Emax', 0.501),
  ('CC1(C)CCC(CN2CCN(c3ccc(C(=O)NS(=O)(=O)c4ccc(NCC5CCOCC5)c([N+](=O)[O-])c4)c(Oc4cnc5[nH]ccc5c4)c3)CC2)=C(c2ccc(Cl)cc2)C1 [Venetoclax] + COc1cc(Nc2ncc3c(n2)-c2ccc(Cl)cc2C(c2c(F)cccc2OC)=NC3)ccc1C(=O)O [Alisertib] (first compound max 1 µM, 7x7, partner max 10 µM)', 'LK-2 (Squamous Cell Lung Carcinoma)', 'combination Emax', 0.848);

[ask] // lookup combination Emax for CCN(CCO)CCCOc1ccc2c(Nc3cc(CC(=O)Nc4cccc(F)c4)[nH]n3)ncnc2c1 [AZD2811] + O=C(c1cc(Cc2n[nH]c(=O)c3ccccc23)ccc1F)N1CCN(C(=O)C2CC2)CC1 [Olaparib] (first compound max 1 µM, 7x7, partner max 10 µM)
[reply] 0.765

[ask] Thanks! And NC1(C(=O)N[C@@H](CCO)c2ccc(Cl)cc2)CCN(c2ncnc3[nH]ccc23)CC1 [Capivasertib] + CCN(CCO)CCCOc1ccc2c(Nc3cc(CC(=O)Nc4cccc(F)c4)[nH]n3)ncnc2c1 [AZD2811] (first compound max 10 µM, 7x7, partner max 1 µM) ?
[reply] 0.925

[ask] Also, CCc1c2c(nc3ccc(O)cc13)-c1cc3c(c(=O)n1C2)COC(=O)[C@]3(O)CC [SN-38] + CN(C)CCCOc1ccc(-c2ccc3ncc4c(c3c2)n(C2CCOCC2)c(=O)n4C)cn1 [AZD0156] (first compound max 0.3 µM, 7x7, partner max 1 µM) please.
[reply] 0.584

[ask] Now consider C[C@@H](Nc1cc(F)cc(F)c1)c1cc(C(=O)N(C)C)cc2c(=O)cc(N3CCOCC3)oc12 [AZD8186] + C1CN(CCC1(C(=O)N[C@@H](CCO)C2=CC=C(C=C2)Cl)N)C3=NC=NC4=C3C=CN4 [AZD5363] (first compound max 10 µM, 7x7, partner max 10 µM) and answer again.
[reply] 0.177

###

system: RCM-1 (Colorectal Carcinoma); assay: combination Emax (second highest fraction inhibited in the dose matrix, 72 h); higher = more inhibition; extreme values may be limits of the assay
Quick rule for you: combination Emax at 0.6 or higher means met, lower means not met.

Worked set:
INSERT INTO assay_data (compound, class) VALUES
  ('C[C@@H]1COCCN1c1cc(C2([S@](C)(=N)=O)CC2)nc(-c2ccnc3[nH]ccc23)n1 [AZD6738] + Nc1ccn([C@@H]2O[C@H](CO)[C@@H](O)C2(F)F)c(=O)n1 [Gemcitabine] (first compound max 10 µM, 7x7, partner max 0.3 µM)', 'met'),
  ('C[C@@H]1COCCN1c1cc(C2([S@](C)(=N)=O)CC2)nc(-c2ccnc3[nH]ccc23)n1 [AZD6738] + O=C(c1cc(Cc2n[nH]c(=O)c3ccccc23)ccc1F)N1CCN(C(=O)C2CC2)CC1 [Olaparib] (first compound max 10 µM, 7x7, partner max 10 µM)', 'met');

[ask] For this compound, is measured combination Emax 0.6 or higher? CC1(C)CCC(CN2CCN(c3ccc(C(=O)NS(=O)(=O)c4ccc(NCC5CCOCC5)c([N+](=O)[O-])c4)c(Oc4cnc5[nH]ccc5c4)c3)CC2)=C(c2ccc(Cl)cc2)C1 [Venetoclax] + Cn1cnc2c(F)c(Nc3ccc(Br)cc3Cl)c(C(=O)NOCCO)cc21 [Selumetinib] (first compound max 1 µM, 7x7, partner max 3 µM)
[reply] not met

[ask] Same thing, different compound: N#Cc1cnc(Nc2cc(NC[C@H]3CNCCO3)c(C(F)(F)F)cn2)cn1 [SRA737] + Nc1ccn([C@@H]2O[C@H](CO)[C@@H](O)C2(F)F)c(=O)n1 [Gemcitabine] (first compound max 10 µM, 7x7, partner max 0.3 µM)
[reply] met

[ask] Also, CC(=O)c1c(C)c2cnc(Nc3ccc(N4CCNCC4)cn3)nc2n(C2CCCC2)c1=O [Palbociclib] + Cc1c2c(nn1C)CSCc1cc(n(C)n1)CSc1cc(c3ccccc3c1)OCCCc1c(C(=O)O)n(C)c3c-2c(Cl)ccc13 [AZD5991] (first compound max 10 µM, 7x7, partner max 1 µM) please.
[reply] not met

[ask] Same question, CCN(CCO)CCCOc1ccc2c(Nc3cc(CC(=O)Nc4cccc(F)c4)[nH]n3)ncnc2c1 [AZD2811] + C=CCn1c(=O)c2cnc(Nc3ccc(N4CCN(C)CC4)cc3)nc2n1-c1cccc(C(C)(C)O)n1 [AZD1775] (first compound max 1 µM, partner max 1 µM) this time
[reply] not met
